# Tested On: Receptor-interacting serine/threonine-protein kinase 1 (Homo sapiens, UniProt Q13546)
# Sequence (Q13546 whole entry): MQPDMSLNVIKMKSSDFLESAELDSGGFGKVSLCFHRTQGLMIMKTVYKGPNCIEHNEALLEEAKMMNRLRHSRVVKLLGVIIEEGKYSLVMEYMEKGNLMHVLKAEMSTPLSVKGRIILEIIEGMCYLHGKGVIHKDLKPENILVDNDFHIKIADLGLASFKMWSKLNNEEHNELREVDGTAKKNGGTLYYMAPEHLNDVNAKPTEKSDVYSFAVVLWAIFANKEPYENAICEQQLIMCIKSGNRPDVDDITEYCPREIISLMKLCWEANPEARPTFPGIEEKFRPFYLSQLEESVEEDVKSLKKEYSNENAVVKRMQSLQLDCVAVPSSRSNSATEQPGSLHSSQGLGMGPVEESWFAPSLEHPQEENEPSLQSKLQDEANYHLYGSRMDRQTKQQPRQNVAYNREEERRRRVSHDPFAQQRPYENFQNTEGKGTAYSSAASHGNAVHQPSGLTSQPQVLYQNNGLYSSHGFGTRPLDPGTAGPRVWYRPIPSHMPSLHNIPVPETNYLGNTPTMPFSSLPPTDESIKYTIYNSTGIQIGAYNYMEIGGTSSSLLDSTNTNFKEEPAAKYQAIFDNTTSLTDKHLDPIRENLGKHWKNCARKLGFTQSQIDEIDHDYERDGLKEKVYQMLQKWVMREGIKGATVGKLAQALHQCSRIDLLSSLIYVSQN
# Measurement Description: Displacement of fluorescein labeled ATP probe from His/GST-tagged RIPK1 (unknown origin) incubated for 60 mins by HTRF assay
Measured Parameter: IC50 (µM)

[a] O=C(Nc1ccc(Oc2ccnc3[nH]ccc23)c(F)c1)c1cccn(-c2ccc(F)cc2)c1=O
[b] Cc1cc(NC(=O)c2cccn(-c3ccc(F)cc3)c2=O)cc(C)c1Oc1ccnc(NC(=O)C2CC2)c1
[c] O=C(Nc1ccc(Oc2ccnc(NC(=O)C3CC3)c2)c(F)c1)c1cccn(-c2ccc(F)cc2)c1=O
(Q) Order by IC50, smallest first, the items presented above. Give me the labels in the order the question wants.
(A) c, a, b
